STUDY_TARGET: T1, alpha subunit of the human FcεRI receptor expressed on Chinese hamster ovary cells (human, UniProt P12319 26-257)
T1 construct: whole, on cells; also called CHO FcεRI+ cells
T1 sequence (looked up): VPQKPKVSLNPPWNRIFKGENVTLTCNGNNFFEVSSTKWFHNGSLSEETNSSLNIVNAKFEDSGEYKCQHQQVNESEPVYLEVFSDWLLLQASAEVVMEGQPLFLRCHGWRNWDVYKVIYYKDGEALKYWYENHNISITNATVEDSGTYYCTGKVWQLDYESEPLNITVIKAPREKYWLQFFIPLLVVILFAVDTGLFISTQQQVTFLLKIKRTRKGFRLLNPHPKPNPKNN
TEST_METHOD_NOTES: inhibition of 125I-IgE binding to CHO cells expressing human FcεRI alpha subunit
Bridges are numbered along the chain shown (N, C = ends). Where no end group is shown, it is not given here. [ ]: non-standard residue; d: D form. 2Nal = N[C@@H](Cc1ccc2ccccc2c1)C(=O)O; Pip = O=C(O)[C@@H]1CCCCN1
The label is fulfilled for IC50 below 10 µM and not fulfilled for IC50 equal to or exceeding 10 µM.

Worked examples follow.
BINDER: Ac-NLPRCTEGPVGWVCM (disulfide 5-14 (inferred), synthetic) [IGE106]
LABEL_CLASS: not fulfilled

BINDER: Ac-NLPRCTEGPWGWVCMADD-NH2 (disulfide 5-14 (inferred), synthetic) [IGE031]
LABEL_CLASS: fulfilled

BINDER: Ac-NLPRCTEG[Pip]WGWVCM-NH2 (disulfide 5-14, synthetic) [IGE085]
LABEL_CLASS: not fulfilled

BINDER: CLEGPWGWFCI-NH2 (disulfide 1-10 (inferred), synthetic) [IGE045]
LABEL_CLASS: not fulfilled

Identify whether the binder Ac-NLPRCTEGP[2Nal]GWVCM (disulfide 5-14 (inferred), synthetic) [IGE103] records IC50 below 10 µM.
fulfilled

Identify whether the binder Ac-NLPRCTAGPWGWVCMAAD-NH2 (disulfide 5-14 (inferred), synthetic) [IGE059] records IC50 below 10 µM.
not fulfilled
